IC50 for assorted compounds
Target: Polyadenylate-binding protein 1 (Homo sapiens)
Sequence (P11940 whole entry): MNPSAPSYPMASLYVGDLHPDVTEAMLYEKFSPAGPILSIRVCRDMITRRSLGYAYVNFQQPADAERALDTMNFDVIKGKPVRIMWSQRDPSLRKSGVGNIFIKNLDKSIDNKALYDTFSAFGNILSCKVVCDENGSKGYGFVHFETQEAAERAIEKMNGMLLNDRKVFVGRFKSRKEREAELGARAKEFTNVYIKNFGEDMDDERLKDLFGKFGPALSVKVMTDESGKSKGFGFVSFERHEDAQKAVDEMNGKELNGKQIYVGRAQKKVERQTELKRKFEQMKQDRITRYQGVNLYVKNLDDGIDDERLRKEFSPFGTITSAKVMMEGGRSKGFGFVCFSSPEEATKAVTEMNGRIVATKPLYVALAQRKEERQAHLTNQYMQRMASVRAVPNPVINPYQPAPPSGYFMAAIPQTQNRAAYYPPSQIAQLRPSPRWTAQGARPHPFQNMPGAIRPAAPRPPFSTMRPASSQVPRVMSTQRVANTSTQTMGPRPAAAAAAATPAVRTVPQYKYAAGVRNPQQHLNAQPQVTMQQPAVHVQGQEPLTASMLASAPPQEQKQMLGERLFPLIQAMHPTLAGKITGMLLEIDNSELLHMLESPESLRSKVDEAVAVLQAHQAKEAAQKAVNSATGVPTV
Experiment: PABP1 MLLE–PAM2 binding inhibitor potency, dose response, biochemical, fluorescence polarization, FITC-PAM2 peptide (AID 602259)
Format: functional
Details: read-out: IC50_Mean
Activity calls are given as the source filed them.

COMPOUND | IC50
COc1ccc(/C(C)=N\NC(=O)CSc2nnc(C)s2)cc1 | > 66 µM (inactive)
Cc1cccc(N(C)C(=O)CCS(=O)(=O)c2cc3c(cc2Cl)NC(=O)CO3)c1 | > 66 µM (inactive)
O=C1C=C(C2OC(CO)C(O)C2O)C(=O)N1 (configuration not stated) | > 66 µM (inactive)
CCOC(=O)CSc1nc(C2CC2)nc2ccccc12 | > 66 µM (inactive)
CC(=O)Nc1cccc(NC(=O)CSc2ncc(C(=O)Nc3ccccc3)c(=O)n2C)c1 | > 66 µM (inactive)
CC(C)c1ccc(O)c(NC(=S)NC(=O)CCc2ccccc2)c1 | > 66 µM (inactive)
Cc1ccc(NC(S)=Nc2ccccn2)cc1C | > 66 µM (inactive)

====

Target: COUP transcription factor 2 (Homo sapiens);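 note: HEK293 cells transiently cotransfected with COUP-TFII expression vector and reporter; luciferase reporter luminescence driven by COUP-TFII from the pX2-168 reporter plasmid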
Sequence (P24468 whole entry): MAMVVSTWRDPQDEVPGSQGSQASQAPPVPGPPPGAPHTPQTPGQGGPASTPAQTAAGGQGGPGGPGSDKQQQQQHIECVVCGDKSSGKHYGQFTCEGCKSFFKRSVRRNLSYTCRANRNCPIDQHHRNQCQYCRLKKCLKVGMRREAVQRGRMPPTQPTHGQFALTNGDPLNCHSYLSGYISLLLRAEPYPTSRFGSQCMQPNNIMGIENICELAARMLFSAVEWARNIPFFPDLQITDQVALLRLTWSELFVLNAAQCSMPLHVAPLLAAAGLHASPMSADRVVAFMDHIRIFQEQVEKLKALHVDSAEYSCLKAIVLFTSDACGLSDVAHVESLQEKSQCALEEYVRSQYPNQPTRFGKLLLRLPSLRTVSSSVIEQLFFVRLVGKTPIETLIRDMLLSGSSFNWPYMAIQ
Assay: Luminescence-based cell-based high throughput dose response assay to identify inhibitors of COUP-TFII (NR2F2).
Type: functional
Active and inactive are the calls of the source.
QUANTITY_MEASURED: IC50

MOLECULE | RECORDED_VALUE
OC[C@@H]1CN(Cc2ccc(-c3ccccc3)cc2)C[C@H](n2cnc3c(NC4CCC4)ncnc32)O1 | 8.62 µM (active)
Cc1c(Cl)cccc1NC(=O)N1CCCN(c2nc(-c3ccccc3)ns2)CC1 | 13.4 µM (inactive)
Cn1nccc1C(=O)NC1CCCc2c1cnn2-c1ccccc1F (centres undefined) | 1.51 µM (active)
Cc1ccc(Cn2ncc3c(N4CCN(Cc5ccc(Cl)cc5)CC4)ncnc32)cc1 | 10.6 µM (inactive)

====

Test system Cytochrome P450 1A2 (Homo sapiens, UniProt P05177), AC50 listed for each of the compounds.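 Note: PubChem cytochrome P450 panel assay, CYP1A2 panel member.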

COMPOUND | AC50
CC1=CC(=O)C2=C(C)C[C@@H](O)[C@@H]3[C@@H](OC(=O)[C@H]3C)[C@H]12 | 25.1 µM (inconclusive)
COc1ccc2c(c1)N(C[C@@H](C)CN(C)C)c1ccccc1S2 | 15.8 µM (inconclusive)
Cn1c(=O)c2nc(CCCCC(=O)O)[nH]c2n(C)c1=O | 0.794 µM (inconclusive)
CC(C)(C)c1cc2cccnc2n1Cc1cccc(F)c1 | 12.6 µM (inconclusive)
CC(C)n1nnnc1SCC(=O)NCc1ccc2c(c1)OCO2 | 12.6 µM (inconclusive)
O=C(Nc1nnc(C2CC2)s1)c1cc(S(=O)(=O)N2CCN(c3ccccc3)CC2)ccc1Cl | 11.2 µM (inconclusive)
CCC(C(=O)Nc1cccc(C(F)(F)F)c1)c1ccccc1 (configuration not stated) | 2.51 µM (inconclusive)
COc1ccc(CCNC(=O)c2nnc(O)c3ccccc23)cc1 | 7.08 µM (inconclusive)
O=C(Oc1ccccc1)N1CCC[C@@]2(CCN(Cc3ccccc3)C2)C1 | 15.8 µM (inconclusive)
C[C@@H]1Oc2ccc(C(=O)C[C@@H](C(=O)O)c3ccc4c(c3)OCO4)cc2O1 | 0.794 µM (inconclusive)
CCCSc1nc(C)cc(C)c1C(N)=O | 28.2 µM (inconclusive)
O=S(=O)(O)c1ccc(O)c2ncccc12 | 0.631 µM (inconclusive)

====

Target: Large T antigen (Simian virus 40, UniProt P03070);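 note: Confirmatory-stage PubChem screen for compounds that inhibit SV40 T antigen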
Sequence (P03070 whole entry): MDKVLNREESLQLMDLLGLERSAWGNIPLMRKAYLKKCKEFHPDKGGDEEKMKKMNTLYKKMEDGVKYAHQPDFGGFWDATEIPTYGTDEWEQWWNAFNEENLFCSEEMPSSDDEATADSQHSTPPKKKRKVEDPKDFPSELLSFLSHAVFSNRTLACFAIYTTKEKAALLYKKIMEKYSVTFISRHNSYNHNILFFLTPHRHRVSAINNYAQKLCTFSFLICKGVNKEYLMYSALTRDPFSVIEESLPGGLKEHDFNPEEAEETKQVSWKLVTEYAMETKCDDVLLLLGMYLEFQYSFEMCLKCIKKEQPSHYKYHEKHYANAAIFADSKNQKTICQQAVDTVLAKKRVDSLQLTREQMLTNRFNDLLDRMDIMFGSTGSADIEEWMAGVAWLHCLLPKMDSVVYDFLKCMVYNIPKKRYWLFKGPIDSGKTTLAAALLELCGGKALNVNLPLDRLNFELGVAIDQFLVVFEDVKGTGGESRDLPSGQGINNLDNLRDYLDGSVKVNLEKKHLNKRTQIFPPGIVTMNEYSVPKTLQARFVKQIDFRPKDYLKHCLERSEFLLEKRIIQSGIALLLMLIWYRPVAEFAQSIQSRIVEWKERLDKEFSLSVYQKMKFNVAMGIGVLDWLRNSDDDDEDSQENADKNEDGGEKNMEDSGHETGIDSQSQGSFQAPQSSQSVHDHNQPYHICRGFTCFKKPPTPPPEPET
Format: functional, Betapolyomavirus macacae
Calls of active or inactive are those of the source.

LINE_NOTATION | SYSTEM_TESTED | IC50
COc1ccc(OC)c(/C=N/NC(=O)CCc2ccc(O)c(O)c2)c1 | Large T antigen (Simian virus 40, UniProt P03070) | 19.1 µM (active)
COC(=O)CSc1nnc(CNc2ccc(OC)cc2)n1C | Large T antigen (Simian virus 40, UniProt P03070) | 45.8 µM (active)
Oc1cccc2cnccc12 | Large T antigen (Simian virus 40, UniProt P03070) | 17.1 µM (active)
COCCN(C(=O)COC(=O)c1cc2c(s1)CCC2)c1c(N)n(Cc2ccccc2)c(=O)[nH]c1=O | Large T antigen (Simian virus 40, UniProt P03070) | 57.7 µM (active)
COc1ccc(-c2c(-c3ccc(O)cc3O)n[nH]c2C)cc1OC | Large T antigen (Simian virus 40, UniProt P03070) | 33.6 µM (active)
COC(=O)C1=C(O)/C(=C\c2ccc(O)c(OC)c2)N=C1C | Large T antigen (Simian virus 40, UniProt P03070) | 7.79 µM (active)
CCOc1cc(/C=N/NC(=O)CCn2nnc3ccccc32)ccc1O | Large T antigen (Simian virus 40, UniProt P03070) | 10.4 µM (active)

====

Target: Calpain-2 catalytic subunit (Sus scrofa)
Sequence (P43367 whole entry): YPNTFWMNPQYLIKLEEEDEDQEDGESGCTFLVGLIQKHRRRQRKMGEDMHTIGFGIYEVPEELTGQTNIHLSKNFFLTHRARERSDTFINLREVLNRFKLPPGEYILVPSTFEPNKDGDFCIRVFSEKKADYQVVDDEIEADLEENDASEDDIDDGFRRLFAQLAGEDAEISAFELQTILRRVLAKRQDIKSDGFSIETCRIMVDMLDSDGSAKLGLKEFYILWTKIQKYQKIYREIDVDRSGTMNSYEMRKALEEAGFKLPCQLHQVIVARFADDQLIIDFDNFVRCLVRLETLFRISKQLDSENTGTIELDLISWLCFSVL
Experiment: pig calpain II inhibitor potency, dose response, biochemical, fluorogenic peptide substrate (AID 1420)
Format: functional
Calls of active or inactive are those of the source.
IC50 for assorted compounds
QUANTITY_MEASURED: IC50

COMPOUND | RECORDED_VALUE
COc1ccc(CNc2nc3c(c(=O)n(Cc4ccc(Br)cc4)c(=O)n3C)n2C)cc1 | 2.3 µM (active)
Cc1ccc(N2CCN(C3=NC(=O)/C(=C\c4cccs4)S3)CC2)cc1 | 19.3 µM (not active)
O=C1c2ccccc2C(=O)N1CCc1csc(-c2ccc(F)cc2)n1 | > 50 µM (not active)
C=CCOc1ccc(/C=N/N2C(=O)C(CC(=O)Nc3ccc(F)cc3F)S/C2=N\C)cc1 (stereo not given) | > 50 µM (not active)
COCCn1c(SCc2ccccc2F)nc2ccccc2c1=O | 9.21 µM (not active)

====

Assay: inhibitors of SNCA 5'UTR-driven reporter translation, confirmation, H4 neuroglioma cells, luminescence (AID 1988)
Type: functional, cell-based
Active and inactive are the calls of the source.

LINE_NOTATION | EC50
COc1cc(C(=O)N/N=C/c2sccc2C)cc(OC)c1OC | 0.114 µM (active)
CCOc1ccccc1NS(=O)(=O)c1ccc(Br)s1 | > 120 µM (not active)
Fc1ccc(-c2nnc(NC3=NCCCCC3)o2)cc1 | 1.4 µM (active)
O=c1ccc2nccc3c4c(O)cccc4n1c23 | 11.9 µM (active)
NS(=O)(=O)c1ccc(NC(=S)N2CCN(Cc3ccc(Cl)c(Cl)c3)CC2)cc1 | > 120 µM (not active)
CCCc1nc2oc3c(NCCCN(C)C)ncnc3c2c2c1CCCC2 | 8.73 µM (active)

====

Target: Cytochrome P450 2C19 (Homo sapiens)
Sequence (P33261 whole entry): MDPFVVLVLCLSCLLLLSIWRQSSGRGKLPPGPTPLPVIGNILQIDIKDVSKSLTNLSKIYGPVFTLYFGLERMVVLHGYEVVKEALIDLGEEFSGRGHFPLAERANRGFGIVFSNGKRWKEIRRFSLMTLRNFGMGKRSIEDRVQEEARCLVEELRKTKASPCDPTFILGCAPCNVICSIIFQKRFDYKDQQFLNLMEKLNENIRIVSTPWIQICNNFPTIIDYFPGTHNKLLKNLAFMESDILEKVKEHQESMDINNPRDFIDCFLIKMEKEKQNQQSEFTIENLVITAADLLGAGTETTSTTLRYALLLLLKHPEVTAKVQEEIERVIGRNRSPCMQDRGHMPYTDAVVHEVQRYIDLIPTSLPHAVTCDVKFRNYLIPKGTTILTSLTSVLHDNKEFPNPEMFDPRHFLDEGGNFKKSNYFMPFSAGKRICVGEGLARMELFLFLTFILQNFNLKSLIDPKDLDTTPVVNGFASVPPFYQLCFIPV
Assay: Cytochrome panel assay with activity outcomes. Panel member name: p450-cyp2c19 Compounds with AC50 equal or less than 10 uM are considered active
Assay type: functional
Details: read-out: AC50
QUANTITY_MEASURED: AC50

LINE_NOTATION | RECORDED_VALUE
C[C@@H]1Oc2ccc(C(=O)C[C@@H](C(=O)O)c3ccc4c(c3)OCO4)cc2O1 | 5.01 µM (inconclusive)
O=C(Oc1ccccc1)N1CCC[C@@]2(CCN(Cc3ccccc3)C2)C1 | 20 µM (inconclusive)
Cc1ccccc1-c1nc(NCc2cccnc2)c2ccccc2n1 | 15.8 µM (inconclusive)
Cc1ccc(C(=O)NNC(=O)c2cc3cc4ccccc4nc3s2)cc1 | 39.8 µM (inconclusive)
CN(C)c1ccc(-c2nc(NCc3cccnc3)c3ccccc3n2)cc1 | 10 µM (inconclusive)
O=[N+]([O-])c1cc(/C=N/O)ccc1SCc1ccccc1 | 6.31 µM (inconclusive)
COc1ccc(CCNC(=O)c2nnc(O)c3ccccc23)cc1 | 2.24 µM (inconclusive)

====

Target: Trace amine-associated receptor 1 (Homo sapiens);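 note: inhibition of calcium response to PEA at EC80 in Galpha16 coupled cells measured by Fluo-8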
Sequence (Q96RJ0 whole entry): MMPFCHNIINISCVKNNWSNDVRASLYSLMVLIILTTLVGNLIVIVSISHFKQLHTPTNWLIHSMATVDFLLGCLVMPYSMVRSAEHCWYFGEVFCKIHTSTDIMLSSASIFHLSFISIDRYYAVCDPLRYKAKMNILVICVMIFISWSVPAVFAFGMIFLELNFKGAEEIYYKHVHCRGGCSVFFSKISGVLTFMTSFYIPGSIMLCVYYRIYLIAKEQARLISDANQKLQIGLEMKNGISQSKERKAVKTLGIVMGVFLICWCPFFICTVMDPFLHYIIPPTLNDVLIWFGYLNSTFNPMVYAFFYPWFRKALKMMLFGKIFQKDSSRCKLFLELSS
Experiment: Counterscreen for agonists of the human trace amine associated receptor 1 (hTAAR1): Fluorescence-based cell-based high throughput dose response assay to identify hTAAR1 agonist that also desensitize TAAR1 receptor response.
Assay type: functional
Active and inactive are the calls of the source.
Possible outcomes: 1 (yes) = active, 0 (no) = inactive

LINE_NOTATION | CLASS_ASSIGNMENT
NNc1nc(Nc2ccccc2)nc(N2CCCCC2)n1 | 1 (yes)
Nc1nc(-c2ccccc2)cn1/N=C/c1ccccc1 | 1 (yes)
CCOC(=O)N[C@H](C(=O)N1CCC[C@H]1C(=O)NCCc1ccccc1Cl)c1ccccc1 | 1 (yes)
O=C(CN1CCc2ccccc2C1)Nc1ccccc1C(F)(F)F | 0 (no)
O=C(COC(=O)Cc1ccccc1F)NCCc1ccccc1 | 1 (yes)
